Numbers sourced from ChEMBL document CHEMBL1136809.

target-or-system: D(2) dopamine receptor (Rattus norvegicus)
Sequence (P61169 whole entry): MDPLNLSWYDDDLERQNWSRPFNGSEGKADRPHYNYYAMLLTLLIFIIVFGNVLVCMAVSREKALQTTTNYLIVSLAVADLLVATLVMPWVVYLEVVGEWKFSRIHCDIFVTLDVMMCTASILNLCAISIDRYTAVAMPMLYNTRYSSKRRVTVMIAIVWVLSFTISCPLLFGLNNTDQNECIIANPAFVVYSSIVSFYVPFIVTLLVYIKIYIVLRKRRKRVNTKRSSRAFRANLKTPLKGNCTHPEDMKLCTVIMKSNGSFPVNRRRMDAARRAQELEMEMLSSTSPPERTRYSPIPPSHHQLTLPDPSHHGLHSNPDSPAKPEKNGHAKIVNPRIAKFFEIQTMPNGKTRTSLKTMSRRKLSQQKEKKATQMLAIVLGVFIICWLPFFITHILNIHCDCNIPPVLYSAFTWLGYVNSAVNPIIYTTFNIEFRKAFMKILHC
assay-text: Inhibition of the binding of radioligand [3H]spiperone to dopamine receptor D2 in rat brain synaptic membrane
Type: cell membranes
Could you please report measured IC50 for the items listed next?
Write the answer as a number in µM, unit excluded.

Query block: I am curious: what IC50 value has been reported for CCN1CCN(C)C[C@@H](NC(=O)c2cc(Cl)c(N)c3c2OCC3)C1 ?
Result block: 0.637

Query block: I am curious: what IC50 value has been reported for CCN1CCN(C)C[C@H](NC(=O)c2cc(Br)c(NC)nc2OC)C1 ?
Result block: 0.122

Query block: I am curious: what IC50 value has been reported for CNc1nc(OC)c(C(=O)NC2CN(C)CCN(C3CC3)C2)cc1Br (centres undefined) ?
Result block: 0.0471
